Each recorded value in this set is attributed to ChEMBL document CHEMBL1649191.

Here, each record is paired with measured MIC data.
System: Klebsiella pneumoniae
PROTOCOL: Antimicrobial activity against blaKPC-positive Klebsiella pneumoniae S6 by broth microdilution method
Format: functional

Below: 7 compounds and their reported MIC.
O=C(O)c1cn(C2CC2)c2cc(N3CCNCC3)c(F)cc2c1=O [CIPROFLOXACIN]; > 64 µg/mL
C[C@H]1[C@H](NC(=O)/C(=N\OC(C)(C)C(=O)O)c2csc(N)n2)C(=O)N1S(=O)(=O)O [AZTREONAM]; > 64 µg/mL
NCC[C@H](O)C(=O)N[C@@H]1C[C@H](N)[C@@H](O[C@H]2O[C@H](CN)[C@@H](O)[C@H](O)[C@H]2O)[C@H](O)[C@H]1O[C@H]1O[C@H](CO)[C@@H](O)[C@H](N)[C@H]1O [AMIKACIN]; 32 µg/mL
CO/N=C(\C(=O)N[C@@H]1C(=O)N2C(C(=O)[O-])=C(C[N+]3(C)CCCC3)CS[C@H]12)c1csc(N)n1; > 64 µg/mL
C[C@@H](O)[C@H]1C(=O)N2C(C(=O)O)=C(SCCNC=N)C[C@H]12 [IMIPENEM ANHYDROUS]; 32 µg/mL
C[C@@H](O)[C@H]1C(=O)N2C(C(=O)O)=C(S[C@@H]3CN[C@H](C(=O)N(C)C)C3)[C@H](C)[C@H]12 [MEROPENEM]; 64 µg/mL
CC(C)(O/N=C(\C(=O)N[C@@H]1C(=O)N2C(C(=O)[O-])=C(C[n+]3ccccc3)CS[C@H]12)c1csc(N)n1)C(=O)O [CEFTAZIDIME]; > 64 µg/mL

Now take the following compound into account.
Task: Can you look up the measured MIC of CN(C)c1cc(NC(=O)CNC(C)(C)C)c(O)c2c1C[C@H]1C[C@H]3[C@H](N(C)C)C(O)=C(C(N)=O)C(=O)[C@@]3(O)C(O)=C1C2=O [TIGECYCLINE] for me?
Result: 4 µg/mL

----------
Test system: Klebsiella pneumoniae
PROTOCOL: Antimicrobial activity against blaKPC-positive Klebsiella pneumoniae S7 by broth microdilution method
Type: functional
Catalogue of molecules with associated MIC
Write it as a number; the unit µg/mL goes unstated.

C[C@@H](O)[C@H]1C(=O)N2C(C(=O)O)=C(SCCNC=N)C[C@H]12 [IMIPENEM ANHYDROUS]; 32

// moving on: another record for MIC
Task: Requested read-out: MIC. Entry: `CN(C)c1cc(NC(=O)CNC(C)(C)C)c(O)c2c1C[C@H]1C[C@H]3[C@H](N(C)C)C(O)=C(C(N)=O)C(=O)[C@@]3(O)C(O)=C1C2=O`
Result: 0.5

----------
Measured MIC, listed per entry for reference.
Test system: Klebsiella pneumoniae
PROTOCOL: Antimicrobial activity against blaKPC-positive Klebsiella pneumoniae S10 by broth microdilution method
Format: functional

Answered cases to consult:
C[C@H]1[C@H](NC(=O)/C(=N\OC(C)(C)C(=O)O)c2csc(N)n2)C(=O)N1S(=O)(=O)O; > 64 µg/mL
C[C@@H](O)[C@H]1C(=O)N2C(C(=O)O)=C(S[C@@H]3CN[C@H](C(=O)N(C)C)C3)[C@H](C)[C@H]12; 64 µg/mL
O=C(O)c1cn(C2CC2)c2cc(N3CCNCC3)c(F)cc2c1=O; > 64 µg/mL
CN(C)c1cc(NC(=O)CNC(C)(C)C)c(O)c2c1C[C@H]1C[C@H]3[C@H](N(C)C)C(O)=C(C(N)=O)C(=O)[C@@]3(O)C(O)=C1C2=O; 1 µg/mL
C[C@@H](O)[C@H]1C(=O)N2C(C(=O)O)=C(SCCNC=N)C[C@H]12 [IMIPENEM ANHYDROUS]; 64 µg/mL

Task: Sample `CC(C)(O/N=C(\C(=O)N[C@@H]1C(=O)N2C(C(=O)[O-])=C(C[n+]3ccccc3)CS[C@H]12)c1csc(N)n1)C(=O)O` — what was its MIC?
Result: > 64 µg/mL

Task: GET /values?readout=MIC&item= `NCC[C@H](O)C(=O)N[C@@H]1C[C@H](N)[C@@H](O[C@H]2O[C@H](CN)[C@@H](O)[C@H](O)[C@H]2O)[C@H](O)[C@H]1O[C@H]1O[C@H](CO)[C@@H](O)[C@H](N)[C@H]1O`
Result: > 64 µg/mL

Task: Return reported MIC; argument: `CO/N=C(\C(=O)N[C@@H]1C(=O)N2C(C(=O)[O-])=C(C[N+]3(C)CCCC3)CS[C@H]12)c1csc(N)n1`
Result: > 64 µg/mL
